// reported IC50 for each item listed
Subject Of Test: human mPGES-1 (Homo sapiens, UniProt O14684)
Construct: made in house; host or cells: COS-1 cells (transient transfection; microsomal fraction used as enzyme)
Sequence (O14684 whole entry): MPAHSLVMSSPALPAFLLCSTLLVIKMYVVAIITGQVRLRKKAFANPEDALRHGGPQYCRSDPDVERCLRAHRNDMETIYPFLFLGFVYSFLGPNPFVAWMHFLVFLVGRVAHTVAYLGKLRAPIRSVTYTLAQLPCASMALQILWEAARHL
Experiment Summary: Test for mPGES-1 inhibitory activity (microsomal enzyme, PGE2 EIA)
Assay type: biochemical
Conditions Used: microsomes from COS-1 cells transfected with human mPGES-1 cDNA; substrate PGH2 1 μM; 4° C., 4 minutes; PGE2 measured by EIA; read-out: h mPGES1 IC50
Express your answer in nM, writing the number without its unit.

O=c1cc(C(F)F)nc(-c2c(C(F)(F)F)ccc(CNC(=O)[C@H]3CC[C@H](OCc4ccc(Cl)cc4)CC3)c2F)[nH]1 10

Recorded IC50 for "Cc1cc(=O)[nH]c(-c2c(C(F)(F)F)ccc(CNC(=O)C3CCN(c4ncc(Cl)cc4Cl)CC3)c2F)n1" on human mPGES-1 (Homo sapiens, UniProt O14684) was 49

Form field IC50 for item "O=c1cc(C(F)(F)F)nc(-c2c(C(F)(F)F)ccc(CNC(=O)[C@H]3C[C@@H](OCc4ccccc4Cl)C3)c2F)[nH]1" on human mPGES-1 (Homo sapiens, UniProt O14684): 2.9
